All figures here come from patent US6410740B1.

# EXPERIMENTAL_TARGET: soluble guanylate cyclase (Sus scrofa, UniProt A0A4X1U7N1+A0ACM8Q7I6)
# Construct: endogenous in cells; host or cells: primary endothelial cells from pig aorta
# Sequence (A0A4X1U7N1 1-619): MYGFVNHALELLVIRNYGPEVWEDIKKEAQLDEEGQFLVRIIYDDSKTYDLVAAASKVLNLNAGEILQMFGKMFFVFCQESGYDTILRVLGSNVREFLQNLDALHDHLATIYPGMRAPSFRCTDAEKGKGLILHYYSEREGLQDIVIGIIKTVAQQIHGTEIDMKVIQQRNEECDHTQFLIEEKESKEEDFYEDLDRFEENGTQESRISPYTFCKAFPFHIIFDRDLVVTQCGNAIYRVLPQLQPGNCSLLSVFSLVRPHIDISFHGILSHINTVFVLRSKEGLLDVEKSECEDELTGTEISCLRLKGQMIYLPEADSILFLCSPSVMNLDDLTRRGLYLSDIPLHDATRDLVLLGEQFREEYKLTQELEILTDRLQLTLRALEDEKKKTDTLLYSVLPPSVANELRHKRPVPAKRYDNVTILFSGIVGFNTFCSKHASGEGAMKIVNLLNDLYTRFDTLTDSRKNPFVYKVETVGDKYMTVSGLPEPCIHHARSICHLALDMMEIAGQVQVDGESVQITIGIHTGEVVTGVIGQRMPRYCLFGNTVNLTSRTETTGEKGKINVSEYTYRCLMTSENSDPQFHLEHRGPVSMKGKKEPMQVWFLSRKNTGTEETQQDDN
# Sequence (A0ACM8Q7I6 1-688): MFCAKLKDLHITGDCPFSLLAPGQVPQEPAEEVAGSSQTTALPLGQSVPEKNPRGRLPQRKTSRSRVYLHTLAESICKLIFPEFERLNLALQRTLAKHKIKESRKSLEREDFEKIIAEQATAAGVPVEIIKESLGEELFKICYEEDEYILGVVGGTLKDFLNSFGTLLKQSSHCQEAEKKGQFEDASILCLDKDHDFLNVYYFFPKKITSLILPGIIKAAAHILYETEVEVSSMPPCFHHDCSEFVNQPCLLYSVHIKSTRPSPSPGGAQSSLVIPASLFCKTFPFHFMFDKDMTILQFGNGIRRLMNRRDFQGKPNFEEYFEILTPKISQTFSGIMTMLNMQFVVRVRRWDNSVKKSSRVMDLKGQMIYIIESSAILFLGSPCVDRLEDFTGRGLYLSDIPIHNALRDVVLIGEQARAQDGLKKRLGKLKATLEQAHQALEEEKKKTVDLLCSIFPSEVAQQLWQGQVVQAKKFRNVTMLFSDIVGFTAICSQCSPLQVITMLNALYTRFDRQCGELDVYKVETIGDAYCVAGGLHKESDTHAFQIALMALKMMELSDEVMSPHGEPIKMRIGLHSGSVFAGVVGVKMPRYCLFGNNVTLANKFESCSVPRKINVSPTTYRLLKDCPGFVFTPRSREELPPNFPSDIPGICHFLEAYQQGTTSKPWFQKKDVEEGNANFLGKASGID
# ASSAY_NAME: Stimulation of soluble guanylate cyclase in primary endothelial cells (intracellular cGMP, radioimmunological)
# Assay type: cell-based
# CONDITION_CONTEXT: 10 min, embodiment II; test substance 1 μM, 10-minute incubation, primary pig aortic endothelial cells, with or without SNP 1 μM (not stated which); read-out: % increase in cGMP
# Protocol: Stimulation of Soluble Guanylate Cyclase in Primary Endothelial Cells Primary endothelial cells were isolated from pig aortas by treatment with collagenase solution. The cells were then cultured in a culture medium until confluence was reached. […] The intracellular cGMP was then determined radioimmunologically. Primary endothelial cells were isolated from pig aortas by treatment with collagenase solution. […] The intracellular cGMP was then determined radioimmunologically. […]
ENDPOINT_LABEL: activation at 1 µM

compound_string=Cc1ccnc(-c2nn(Cc3ccccc3)c3ccccc23)n1 endpoint_label="activation at 1 µM" reported_result=611%
compound_string=CNc1nc(-c2nn(Cc3ccccc3)c3ccccc23)ncc1Cl endpoint_label="activation at 1 µM" reported_result="> 1000%"
compound_string=Clc1nccc(-c2nn(Cc3ccccc3)c3ccccc23)n1 endpoint_label="activation at 1 µM" reported_result=116%
compound_string=Cc1nc(-c2nn(Cc3ccccc3)c3ccccc23)nc(C)c1Cl endpoint_label="activation at 1 µM" reported_result=240%
compound_string=Cc1cnc(-c2nn(Cc3ccccc3C#N)c3ccccc23)nc1C endpoint_label="activation at 1 µM" reported_result="> 1000%"
compound_string=Fc1ccccc1Cn1nc(-c2ncccn2)c2ccccc21 endpoint_label="activation at 1 µM" reported_result="> 1000%"
compound_string=Cc1nc(-c2nn(Cc3ccccc3)c3ccccc23)nc(C)c1C endpoint_label="activation at 1 µM" reported_result=390%
compound_string=c1ccc(Cn2nc(-c3ccccn3)c3ccccc32)cc1 endpoint_label="activation at 1 µM" reported_result=271%
compound_string=N#Cc1cnc(-c2nn(Cc3ccccc3)c3ccccc23)nc1N endpoint_label="activation at 1 µM" reported_result="> 1000%"
compound_string=c1ccc(Cn2nc(-c3ncccn3)c3ccccc32)cc1 endpoint_label="activation at 1 µM" reported_result=909%

Field: activation at 1 µM. Fill in for each record below.
1. Cc1cnc(-c2nn(Cc3ccccc3F)c3ccccc23)nc1C
2. Nc1nccc(-c2nn(Cc3ccccc3)c3ccccc23)n1
3. CCOC(OCC)c1nc(-c2nn(Cc3ccccc3)c3ccccc23)ncc1C
4. N#Cc1ccccc1Cn1nc(-c2ncccn2)c2ccccc21

Resp:
1. > 1000%
2. 428%
3. 326%
4. 557%
